# credit: patent US11352368B2

Assay: Solubility test of crystal form A and crystal form B in a medium (Example 12)
Format: physicochemical
Conditions: FeSSIF, thermodynamic from solid, medium intestinal fluid in simulated fed state (FeSSIF); read-out: Solubility (calculated by free base of the fused ring pyrimidine compound)
observable: solubility (µg/mL)
Output spec: scalar in µg/mL, unitless text.

What does the data say about its solubility? Entry: COc1cc(F)ccc1-c1c(C)sc2cnc(Nc3cnn(C4CCNCC4)c3)nc12
1910

----------
Assay: Solubility test of the salts in pure water (Example 6)
Type: physicochemical
Conditions: room temperature, balancing about 20 hours, HPLC
Provide the recorded saturated solubility for the entries that follow.
# number only, unit µg/mL dropped from output

Would you kindly share the measured saturated solubility for COc1cc(F)ccc1-c1c(C)sc2cnc(Nc3cnn(C4CCNCC4)c3)nc12 [Example 4] ?
146

Name the reported saturated solubility value associated with the molecule COc1cc(F)ccc1-c1c(C)sc2cnc(Nc3cnn(C4CCNCC4)c3)nc12 [Example 3]
675

Quick one: saturated solubility for COc1cc(F)ccc1-c1c(C)sc2cnc(Nc3cnn(C4CCNCC4)c3)nc12 [Example 1] ?
170

Given the entry COc1cc(F)ccc1-c1c(C)sc2cnc(Nc3cnn(C4CCNCC4)c3)nc12 [Example 2] , report its measured saturated solubility.
520

----------
Assay: Solubility test of crystal form A and crystal form B in a medium (Example 12)
Assay type: physicochemical
Conditions: 50 mM phosphate buffer, pH 6, aqueous buffer, thermodynamic from solid, medium pH 6 (50 mM phosphate buffer); read-out: Solubility (calculated by free base of the fused ring pyrimidine compound)
Text: Example 12 Solubility Test of the Crystal Form A of the Fumarate of Fused Ring Pyrimidine Compound as Shown in Formula 2 and the Crystal Form B of the Adipate of Fused Ring Pyrimidine Compound as Shown in Formula 3 in a Medium
observable: solubility (µg/mL)
Dear colleague, please return just the value in µg/mL, with no unit written.

Fill blank: measured solubility of the molecule COc1cc(F)ccc1-c1c(C)sc2cnc(Nc3cnn(C4CCNCC4)c3)nc12 is ____.
36
